Value source: patent US11718611B2

Give measured microsomal CLint at 1 μM for each item. Keep answers brief.
# Measurement notes: Liver microsomal metabolism experiment (metabolic stability)
# Type: in vitro ADME
# Condition label: pH 7.4; mouse liver microsomes 0.5 mg/mL, compound 1 μM
Answers are plain numbers, in µL/min/mg.

[2H]C([2H])(C1=C(c2ccc(Cl)cc2)CC(C)(C)CC1)N1C([2H])([2H])C([2H])([2H])N(c2ccc(C(=O)NS(=O)(=O)c3ccc(NCC4CCOCC4)c([N+](=O)[O-])c3)c(Oc3cnc4[nH]ccc4c3)c2)C([2H])([2H])C1([2H])[2H] (single isomer, unassigned) : 20.7
[2H]C([2H])(Nc1ccc(S(=O)(=O)NC(=O)c2ccc(N3CCN(C([2H])([2H])C4=C(c5ccc(Cl)cc5)CC(C)(C)CC4)CC3)cc2Oc2cnc3[nH]ccc3c2)cc1[N+](=O)[O-])C1CCOCC1 (single isomer, unassigned) : 9.7
CC1(C)CCC(CN2CCN(c3ccc(C(=O)NS(=O)(=O)c4ccc(NCC5CCOCC5)c([N+](=O)[O-])c4)c(Oc4cnc5[nH]ccc5c4)c3)CC2)=C(c2ccc(Cl)cc2)C1 [Venetoclax, reference compound] : 17.1

Please report microsomal CLint at 1 μM for every entry that follows.
1. [2H]C1([2H])N(CC2=C(c3ccc(Cl)cc3)CC(C)(C)CC2)C([2H])([2H])C([2H])([2H])N(c2ccc(C(=O)NS(=O)(=O)c3ccc(NCC4CCOCC4)c([N+](=O)[O-])c3)c(Oc3cnc4[nH]ccc4c3)c2)C1([2H])[2H] (single isomer, unassigned)
2. [2H]C([2H])(C1=C(c2ccc(Cl)cc2)CC(C)(C)CC1)N1CCN(c2ccc(C(=O)NS(=O)(=O)c3ccc(NCC4CCOCC4)c([N+](=O)[O-])c3)c(Oc3cnc4[nH]ccc4c3)c2)CC1 (single isomer, unassigned)
3. [2H]C([2H])(Nc1ccc(S(=O)(=O)NC(=O)c2ccc(N3C([2H])([2H])C([2H])([2H])N(C([2H])([2H])C4=C(c5ccc(Cl)cc5)CC(C)(C)CC4)C([2H])([2H])C3([2H])[2H])cc2Oc2cnc3[nH]ccc3c2)cc1[N+](=O)[O-])C1CCOCC1 (single isomer, unassigned)
4. [2H]C([2H])(Nc1ccc(S(=O)(=O)NC(=O)c2ccc(N3C([2H])([2H])C([2H])([2H])N(CC4=C(c5ccc(Cl)cc5)CC(C)(C)CC4)C([2H])([2H])C3([2H])[2H])cc2Oc2cnc3[nH]ccc3c2)cc1[N+](=O)[O-])C1CCOCC1 (single isomer, unassigned)
5. [2H]C([2H])(Nc1ccc(S(=O)(=O)NC(=O)c2ccc(N3CCN(CC4=C(c5ccc(Cl)cc5)CC(C)(C)CC4)CC3)cc2Oc2cnc3[nH]ccc3c2)cc1[N+](=O)[O-])C1CCOCC1 (single isomer, unassigned)

A.
1. 15.2
2. 5.7
3. 4.5
4. 17.8
5. 18.4
